Give measured pKd for each item. Keep answers brief.
Target chain: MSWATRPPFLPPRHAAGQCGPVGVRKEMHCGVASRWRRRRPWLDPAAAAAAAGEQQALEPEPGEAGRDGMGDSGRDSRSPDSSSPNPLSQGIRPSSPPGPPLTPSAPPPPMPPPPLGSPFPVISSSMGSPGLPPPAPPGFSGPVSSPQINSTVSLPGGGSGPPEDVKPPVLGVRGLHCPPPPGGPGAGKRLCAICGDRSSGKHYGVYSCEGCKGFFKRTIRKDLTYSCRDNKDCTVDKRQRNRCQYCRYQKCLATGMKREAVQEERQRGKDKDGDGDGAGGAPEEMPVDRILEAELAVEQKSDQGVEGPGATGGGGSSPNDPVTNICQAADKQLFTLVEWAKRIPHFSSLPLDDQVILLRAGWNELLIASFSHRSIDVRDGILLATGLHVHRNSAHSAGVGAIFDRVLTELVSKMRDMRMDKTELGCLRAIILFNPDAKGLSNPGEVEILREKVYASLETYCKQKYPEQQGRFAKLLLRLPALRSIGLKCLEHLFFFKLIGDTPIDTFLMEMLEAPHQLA
The value called pKd is obtained by taking minus log10 of the concentration in mol/L.

// query Answer with the recorded pKd for the compound listed here: CC(/C=C/C=C1/CCCc2cc3c(cc21)C(C)(C)CCC3(C)C)=C\C(=O)O [Compound 101b]
// result 7.52

// query Answer with the recorded pKd for the compound listed here: CC(/C=C/C=C1\CCCc2cc3c(cc21)C(C)(C)CCC3(C)C)=C\C(=O)O [Compound 109b]
// result 6.48

// query Answer with the recorded pKd for the compound listed here: CCN1CC\C(=C/C=C/C(C)=C/C(=O)O)c2cc3c(cc21)C(C)(C)CCC3(C)C [Compound 147b]
// result 6.26

// query Answer with the recorded pKd for the compound listed here: CC(/C=C/CN1CCCCc2cc3c(cc21)C(C)(C)CCC3(C)C)=C\C(=O)O [Compound 138b]
// result 6.56

// query Answer with the recorded pKd for the compound listed here: CC(/C=C/C=C1/CCOc2cc3c(cc21)C(C)(C)CCC3(C)C)=C\C(=O)O [Compound 144b]
// result 6.84

// query Answer with the recorded pKd for the compound listed here: CC(/C=C/C=C1\CCOc2cc3c(cc21)C(C)(C)CCC3(C)C)=C\C(=O)O [Compound 119b]
// result 6.43
